Tested on: SW-620 colon
EXPERIMENTAL PROTOCOL: NCI-60 one-dose screen, 48 h
EXPERIMENTAL SETUP: 10 µM unless noted
The panel holds about 83,000 compounds, 20% with a hit somewhere; the sample as a whole holds those more often. Active and inactive are the calls of the source. How the source made its calls: active means growth percent below 10; inactive means the rest.
// one of yes for active, no for inactive, no free text

Known results for molecules:
> print(dat)
                                   molecule  category
1  O=C(COc1cccc(/C=C2\COc3ccccc3C2=O)c1)c1ccccc1       yes
2  COc1ccc(/C=C2\CN(Cc3cn(CCCNc4ccnc5cc(Cl)ccc45)nn3)C/C(=C\c3ccc(OC)c(OC)c3)C2=O)cc1OC       yes
3  CSc1nnc(-c2sc3nnc(-c4ccccc4)c(-c4ccccc4)c3c2O)o1        no
4  COc1ccc(-c2nn(-c3ccc(NC(=O)c4ccc(Cl)c(Cl)c4)cc3)cc2-c2ccncc2)cc1Cl        no
5  CCOC(=O)c1cc2c(n(C)c1=O)-c1cnn(-c3ccc(OC)cc3)c1CC2        no

Task: # outcome recorded in this test, key = `N#C/C(=C\c1ccc[nH]1)c1cc2ccccc2[nH]1`
Result: no
